Tested on: Plasmodium falciparum
Assay: GSK_TCMDC: Inhibition of Plasmodium falciparum Dd2 in whole red blood cells, using parasite LDH activity as an index of growth. Test compounds present at 2uM
Format: functional
# Inhibition >= 50% gives T, anything below gives F

# Compound, Classification
records = [
    ("Brc1ccccc1CNc1ccnc(NCCn2ccnc2)n1", "F"),
]

Q. State whether the measured Inhibition reaches 50%, counting equality as reaching it, for Cc1cccc2c3c([nH]c12)C1(CCN(CCc2ccccc2)CC1)NC(C(=O)NCc1ccccc1)C3 (stereo not given)
A. T

Q. Could you do the same for CC(C)c1ccc(CN2CCCCC(NC(=O)c3cc(-c4ccccc4F)cs3)C2)cc1.O=C(O)C(F)(F)F (stereo not given) , please?
A. T

Q. Could you do the same for COCCn1c(Sc2ncnc3sccc23)nc2ccccc21 , please?
A. T
